From: the supplement of paper PMC11061612

- System: BFTC-909 (Kidney Carcinoma);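 further: after 72 h of two-drug dosing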
- Method Notes: Bliss excess, mean over the matrix (fraction); higher = more synergy
Bliss excess values by entry
Reply with the value as a number alone.

Compound	Bliss excess
COc1nnc2ccc(N3CCC(c4ccc(OCCN5CCN(C)C(=O)[C@H]5C)cc4)CC3)nn12 [AZD5153] + CN(CC[C@H](CSC1=CC=CC=C1)NC2=C(C=C(C=C2)S(=O)(=O)NC(=O)C3=CC=C(C=C3)N4CCC(CC4)[C@H](C5=CC=CC=C5C6=CC=C(C=C6)Cl)O)S(=O)(=O)C(F)(F)F)CCO [AZD4320] (first compound max 1 µM, 7x7, partner max 1 µM)	0.0663

The compound identified as C[C@@H](c1ccc2nccn2c1)n1nnc2ncc(-c3cnn(C)c3)nc21 [Savolitinib] + Cc1c2c(nn1C)CSCc1cc(n(C)n1)CSc1cc(c3ccccc3c1)OCCCc1c(C(=O)O)n(C)c3c-2c(Cl)ccc13 [AZD5991] (first compound max 1 µM, 7x7, partner max 1 µM) registered its Bliss excess at -0.0074
